# Method: NCI Yeast Anticancer Drug Screen. Data for the bub3 strain (AID 167)
# Measurement Context: S. cerevisiae bub3 mutant strain, at 1.2 µM, hits give high values
The panel holds about 79,000 compounds, 15% with a hit somewhere; the sample as a whole holds those more often.
Assay Endpoint: growth inhibition (%)
Answers are plain numbers, in %.

A selection of reference data follows.
CN(C)CCCCN1c2ccccc2Sc2ccc(N=[N+]=[N-])cc21 :: -8
COc1ccc(C2C3=C(COC3=O)OC(C)(C)Oc3cc4c(cc32)OCO4)cc1OC (stereo unspecified) :: -47
Oc1[nH]c2ccccc2c1N=NC(=S)N1CCCCC1 :: -1
CCCCc1ccc(-n2c(C)c(COC(=O)NC)c(COC(=O)NC)c2C)cc1 :: -36
COC(=O)CC1(O)C(/C=C/c2ccccc2)C(C(=O)OC)C(=O)C(C(=O)OC)C1C(=O)OC (stereo unspecified) :: -4

Give measured growth inhibition for every item shown.
1. Cc1cc2c(cc1C)[n+]([O-])c(-c1nc3ccccc3s1)c(N)[n+]2[O-]
2. OC(CCNCc1ccccc1)c1ccc2ccccc2c1 (stereo unspecified)
3. CCCCCCN(CCCCCC)CC(O)c1ccnc2ccc(OC)cc12 (stereo unspecified)

Resp:
1: 11; 2: 29; 3: 5

###

# Method: NCI Yeast Anticancer Drug Screen. Data for the sgs1 mgt1 strain (AID 161);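 further: 0% = growth of cultures given vehicle only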
# Measurement Context: S. cerevisiae sgs1 mgt1 strain, at 50.0 µM (retest, dose inferred, filed as 5.0)
The panel holds about 79,000 compounds, 15% with a hit somewhere; the sample as a whole holds those more often. Activity calls are given as the source filed them. Cut-off read from the data, not from the text of the source: active = growth inhibition above about 70%; inactive = the rest.
Give your call using only these classes: TRUE (active), FALSE (inactive)

CCOC(=O)[C@H]1Nc2ccc(OC)cc2C2c3ccccc3CC21 (stereo partly specified) :: FALSE

Req: I'd appreciate the recorded outcome for CC(C)C(C)/C=C\C(C)C1CCC2C3=CC=C4CC(O)CCC4(C)C3CCC21C (stereo unspecified) from this test.
Resp: FALSE

Req: I'd appreciate the recorded outcome for C(=Nc1ccc(-c2cc(-c3ccccc3)nc3ccc4ccccc4c23)cc1)c1ccccc1 from this test.
Resp: TRUE

Req: I'd appreciate the recorded outcome for CCN(CC)CCN(C)CCc1ccc(Br)cc1 from this test.
Resp: FALSE

Req: I'd appreciate the recorded outcome for CCCC/C=C/C(C)(C(=O)OCC)C(=O)OCC from this test.
Resp: FALSE

Req: I'd appreciate the recorded outcome for Cn1c(-c2ccc(/C=N\N3CCN(/N=C/c4ccc(-c5c[n+]6ccccc6n5C)cc4)CC3)cc2)c[n+]2ccccc12 from this test.
Resp: TRUE

Req: I'd appreciate the recorded outcome for CCCCCCCCCCCC(O)S(=O)(=O)O (stereo unspecified) from this test.
Resp: FALSE

Req: I'd appreciate the recorded outcome for CC(NCCN(C)C)C1CCC2C3CCc4cc(O)ccc4C3CCC12C (stereo unspecified) from this test.
Resp: FALSE

###

Would you mind telling me the reported growth inhibition of each entry?
# Method: NCI Yeast Anticancer Drug Screen. Data for the mgt1 strain (AID 153)
# Measurement Context: S. cerevisiae mgt1 mutant growth inhibition; at 3.7 µM; hits give high values
Compounds without any hit were thinned out: in the full panel of roughly 79,000, 15% have a hit.
One number for each entry, in %.

Cc1ccc2nc(-c3cccc([N+](=O)[O-])c3)oc(=O)c2c1 :: -25
CCO/C(C)=C(/C#N)C(N)=S :: -4
Cc1ccc(Cl)cc1NC(=O)OCCN(C)C(=O)Nc1cc(Cl)ccc1C :: -28
c1ccc2c(OCC3CO3)cccc2c1 (configuration not stated) :: -1
Cc1cc(C(C)(C)C)c(OCCCN2CCOCC2)c(C(C)(C)C)c1 :: -4

Give measured growth inhibition for every item shown.
1. Oc1cccc2cc(Cl)cnc12
2. CCC(C)OC(=O)Nc1ccc(C)c(NC(=O)OC(C)CC)c1 (configuration not stated)
3. NC1CCCCC1N.Nc1c(N=Nc2ccc(-c3ccc(N=Nc4cc(S(=O)(=O)[O-])c5ccccc5c4N)cc3)cc2)cc(S(=O)(=O)[O-])c2ccccc12.[OH3+].[OH3+].[Pt+4]

Resp:
[-22, -2, 12]

Give measured growth inhibition for every item shown.
1. Cc1ccc(NC(c2ccccc2)c2ccc3cccnc3c2O)cc1 (configuration not stated)
2. Nc1ccc(F)cc1S
3. NCCNCCNc1ccc(NCCNCCN)c2c1C(=O)c1c(O)ccc(O)c1C2=O
4. COc1ccc(/C=C/C(=O)c2ccccc2)cc1OC
5. CC1CC(C)(C)CC(OCCN2CCCCC2)(c2ccccc2)C1 (configuration not stated)
6. CC(C)OC(=O)Nc1ccc2nc(-c3cscn3)[nH]c2c1
7. COc1c(O)c(C=O)c(Br)c(C=O)c1O

Resp:
1: 2; 2: -20; 3: 0; 4: -30; 5: 2; 6: -7; 7: 0

Give measured growth inhibition for every item shown.
1. COc1ccc(/C=C/c2sc3ccccc3[n+]2CCCCI)cc1OC
2. C/C(=N\Nc1ccc([N+](=O)[O-])cc1[N+](=O)[O-])c1sc(-n2nc(-c3ccccc3)cc2-c2ccccc2)nc1C
3. CN(C)[C@@H]1C(=O)C(C(N)=O)=C(O)[C@@]2(O)C(=O)C3=C(O)c4c(O)cccc4C[C@H]3C[C@@H]12
4. CCCC/C([O-])=C1/C(=O)N(c2ccccc2)N=C1C.CCCC/C([O-])=C1/C(=O)N(c2ccccc2)N=C1C.[Cu+2]
5. O=C(NNc1ccccc1)c1ccc(Cl)c(Cl)c1
6. CN(C)c1nc(=Nc2cccc(Cl)c2)ss1

Resp:
1. -1
2. 6
3. -5
4. -1
5. -1
6. 47

Req: Please report growth inhibition for the following molecule: COc1ccc(C2C3=C(COC3=O)OC(C)(C)Oc3cc4c(cc32)OCO4)cc1OC (configuration not stated)
Resp: 26

###

# Method: NCI Yeast Anticancer Drug Screen. Data for the wt1 strain (AID 149);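 further: 0% = growth of vehicle-treated wt1 cultures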
# Measurement Context: S. cerevisiae wt1 strain (SPY 50644) growth inhibition; at 100.0 µM
This is part of a sample that, as a whole, favours compounds with a hit. Of some 79,000 tested, about 15% had one in any assay. Active and inactive are the calls of the source. Cut-off read from the data, not from the text of the source: active = growth inhibition above about 70%; inactive = the rest.
Give your call using only these classes: active, inactive

CS(=O)(=O)SCc1ccc([N+](=O)[O-])cc1 :: active
CCCCCCN(CCCCCC)CC(O)c1ccnc2ccc(OC)cc12 (stereo unspecified) :: inactive
O=C1NC(=O)c2ccc([N+](=O)[O-])c3cccc1c23 :: inactive
Cc1cccc[n+]1C1CCc2c(ccc3ccccc23)C1=O (stereo unspecified) :: inactive
O=C(NNc1ccccc1)C(O)C(O)C(O)C(O)C(O)CO (stereo unspecified) :: active

Req: I'd appreciate the recorded outcome for CNC(=O)OCc1c(COC(=O)NC)c2n(c1C)-c1ccc(OC)cc1CCC2 from this test.
Resp: active

###

Would you mind telling me the reported growth inhibition of each entry?
# Method: NCI Yeast Anticancer Drug Screen. Data for the mgt1 strain (AID 153)
# Measurement Context: S. cerevisiae mgt1 mutant growth inhibition; at 3.7 µM; hits give high values
Compounds without any hit were thinned out: in the full panel of roughly 79,000, 15% have a hit.
One number for each entry, in %.

O=c1ccc(=O)n(-c2ccccc2)[nH]1 :: 19
CCOC(=O)c1ccc(NC(=O)O/N=C(/Cl)C(C)C)cc1 :: -7
CCOC(=O)C(C(=O)OCC)=P(c1ccccc1)(c1ccccc1)c1ccccc1 :: 3
COc1ccc2[nH]cc([C@@H]3C4CCC(C4)[C@H]3NCc3cccc(CN[C@H]4C5CCC(C5)[C@@H]4c4c[nH]c5ccc(OC)cc45)c3)c2c1 :: -47
CC[n+]1oc(C(=O)c2ccc(Cl)cc2)c(-c2ccccc2)c1-c1ccccc1.[Cl][Fe]([Cl])([Cl])[Cl] :: -3

Give measured growth inhibition for every item shown.
1. O=C(O)Cc1cc(F)ccc1C(=O)O
2. O=C(O)C1CC(c2ccccc2)=NN1c1ccccc1 (stereo not given)
3. CN(C)Cc1cc(N=Nc2ccc(Cl)cc2)ccc1OC(=O)c1ccccc1
4. CCN(CC)Cc1cc(Nc2c3ccccc3nc3c2[nH]c2ccccc23)cc(CN(CC)CC)c1O
5. COc1ccc2c(c1)n([O-])c1ccccc1[n+]2=O
6. O=C1N=C2SC=C(NC(=S)Nc3ccccc3)N2NC12c1ccccc1-c1ccccc12

Resp:
1: 3; 2: -56; 3: 1; 4: -3; 5: 2; 6: 6

###

# Method: NCI Yeast Anticancer Drug Screen. Data for the mlh1 strain (AID 171);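 further: 0% = growth of vehicle-treated control cultures of the same strain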
# Measurement Context: S. cerevisiae mlh1 strain growth inhibition; at 100.0 µM; hits give high values
The panel holds about 79,000 compounds, 15% with a hit somewhere; the sample as a whole holds those more often.
Would you mind telling me the reported growth inhibition of each entry?
Give bare numbers, in %.

A selection of reference data follows.
Cc1cccc2c1nc1ccc(Cl)cc1[n+]2C :: 97
CSc1nc(C)c(CCOC(C)=O)c(N=P(c2ccccc2)(c2ccccc2)c2ccccc2)n1 :: 92

Give measured growth inhibition for every item shown.
1. COC(=O)NC1C(C)OC(OC2C/C=C(/C)C3C=CC4C(OC5CC(OC6CC(O)C(OC7CC(O)C(OC)C(C)O7)C(C)O6)C(O)C(C)O5)C(C)CC(C)C4C3(C)/C(O)=C3\C(=O)OC4(CC(C)C(CO)=CC4/C=C\2C)C3=O)CC1(C)[N+](=O)[O-] (stereo not given)
2. NCCNCCNc1ccc(NCCNCCN)c2c1C(=O)c1c(O)ccc(O)c1C2=O
3. O=c1ccc2ccccc2c2ccccc12
4. c1ccc2cc(NCNc3ccc4ccccc4c3)ccc2c1
5. Cc1cc(C(C)(C)C)c(OCCCN2CCOCC2)c(C(C)(C)C)c1
6. Cc1ccc(Cl)cc1NC(=O)OCCN(C)C(=O)Nc1cc(Cl)ccc1C
7. O=[N+]([O-])c1cc[n+]([O-])cc1
8. O=C1CC(=O)c2ccccc21

Resp:
-2
16
99
15
97
11
99
65

Recorded values, source PubChem BioAssay (NCI).
